- study system: plasma purified human complement protein C3 (human) (UniProt P01024)
- Sequence (P01024 23-667, chain 1 of 2): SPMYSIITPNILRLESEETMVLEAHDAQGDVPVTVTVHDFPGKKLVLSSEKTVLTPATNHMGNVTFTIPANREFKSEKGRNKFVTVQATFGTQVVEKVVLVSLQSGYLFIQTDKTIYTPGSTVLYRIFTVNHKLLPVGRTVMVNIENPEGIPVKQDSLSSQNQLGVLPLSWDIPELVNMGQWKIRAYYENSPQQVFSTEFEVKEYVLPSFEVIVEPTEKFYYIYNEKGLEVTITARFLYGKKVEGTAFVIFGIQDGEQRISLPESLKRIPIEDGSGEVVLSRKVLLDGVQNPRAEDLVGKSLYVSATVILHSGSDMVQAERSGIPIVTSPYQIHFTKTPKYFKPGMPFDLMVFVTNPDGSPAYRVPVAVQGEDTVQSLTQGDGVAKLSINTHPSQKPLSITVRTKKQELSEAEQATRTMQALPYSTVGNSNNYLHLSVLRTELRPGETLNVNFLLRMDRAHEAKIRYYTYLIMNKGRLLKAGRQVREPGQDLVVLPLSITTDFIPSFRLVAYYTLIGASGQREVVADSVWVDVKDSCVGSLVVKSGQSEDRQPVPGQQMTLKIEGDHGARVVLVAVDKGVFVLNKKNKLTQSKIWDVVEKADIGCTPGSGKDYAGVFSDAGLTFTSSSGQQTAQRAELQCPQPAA
- Sequence (P01024 672-1663, chain 2 of 2): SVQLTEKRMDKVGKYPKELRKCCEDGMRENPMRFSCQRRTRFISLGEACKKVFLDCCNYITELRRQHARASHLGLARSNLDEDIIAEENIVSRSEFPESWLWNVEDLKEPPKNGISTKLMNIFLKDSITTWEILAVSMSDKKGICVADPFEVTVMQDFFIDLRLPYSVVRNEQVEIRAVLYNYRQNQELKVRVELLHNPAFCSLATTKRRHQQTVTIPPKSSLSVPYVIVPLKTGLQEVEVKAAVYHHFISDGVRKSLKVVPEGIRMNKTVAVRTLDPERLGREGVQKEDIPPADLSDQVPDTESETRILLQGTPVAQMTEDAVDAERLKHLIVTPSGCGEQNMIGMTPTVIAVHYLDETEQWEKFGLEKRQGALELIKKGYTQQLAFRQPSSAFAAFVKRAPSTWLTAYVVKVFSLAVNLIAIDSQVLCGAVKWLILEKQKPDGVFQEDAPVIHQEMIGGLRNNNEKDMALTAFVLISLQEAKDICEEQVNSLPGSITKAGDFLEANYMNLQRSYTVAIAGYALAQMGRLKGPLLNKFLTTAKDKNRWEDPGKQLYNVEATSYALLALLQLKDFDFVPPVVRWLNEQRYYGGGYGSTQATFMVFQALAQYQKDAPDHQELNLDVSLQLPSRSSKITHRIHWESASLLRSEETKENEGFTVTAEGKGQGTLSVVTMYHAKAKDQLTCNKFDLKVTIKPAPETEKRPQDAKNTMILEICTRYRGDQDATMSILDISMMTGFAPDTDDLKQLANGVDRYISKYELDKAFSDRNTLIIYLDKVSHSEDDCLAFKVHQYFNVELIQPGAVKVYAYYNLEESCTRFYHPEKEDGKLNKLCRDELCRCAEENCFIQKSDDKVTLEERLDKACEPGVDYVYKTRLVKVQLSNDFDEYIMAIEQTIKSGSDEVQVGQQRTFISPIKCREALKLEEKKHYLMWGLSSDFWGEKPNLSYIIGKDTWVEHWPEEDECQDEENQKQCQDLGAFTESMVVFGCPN
- test: cell-based or functional assay
The following binders are shown together with reported EC50 of hC3 cleavage values.

[
  {
    "binder": "MTSP-1 Q38H/I41A/D60bV/F60eI/ins97aE/F97T/T98G/F99L/C122S/Q175L/Q192E (enzyme) VVGGTDADEGEWPWQVSLHALGHGHACGASLISPNWLVSAAHCYIDVRGIRYSDPTQWTAFLGLHDQSQRSAPGVQERRLKRIISHPFFNDTEGLDYDIALLELEKPAEYSSMVRPISLPDASHVFPAGKAIWVTGWGHTQYGGTGALILQKGEIRVINQTTCENLLPQLITPRMMCVGFLSGGVDSCEGDSGGPLSSVEADGRIFQAGVVSWGDGCAQRNKPGVYTRLPLFRDWIKENTGV",
    "EC50 of hC3 cleavage (nM)": 7.64
  },
  {
    "binder": "MTSP-1 Y59F/ins97aE/F97T/T98G/F99L/C122S/Q175L/Q192E (enzyme) VVGGTDADEGEWPWQVSLHALGQGHICGASLISPNWLVSAAHCFIDDRGFRYSDPTQWTAFLGLHDQSQRSAPGVQERRLKRIISHPFFNDTEGLDYDIALLELEKPAEYSSMVRPISLPDASHVFPAGKAIWVTGWGHTQYGGTGALILQKGEIRVINQTTCENLLPQLITPRMMCVGFLSGGVDSCEGDSGGPLSSVEADGRIFQAGVVSWGDGCAQRNKPGVYTRLPLFRDWIKENTGV",
    "EC50 of hC3 cleavage (nM)": 341
  },
  {
    "binder": "MTSP-1 Q38H/I41S/D60bT/F60eS/Y60gW/ins97aV/F97D/T98P/F99L/C122S/G151H/Q175L/Q192V (enzyme) VVGGTDADEGEWPWQVSLHALGHGHSCGASLISPNWLVSAAHCYIDTRGSRWSDPTQWTAFLGLHDQSQRSAPGVQERRLKRIISHPFFNDDVPLDYDIALLELEKPAEYSSMVRPISLPDASHVFPAGKAIWVTGWGHTQYGGTHALILQKGEIRVINQTTCENLLPQLITPRMMCVGFLSGGVDSCVGDSGGPLSSVEADGRIFQAGVVSWGDGCAQRNKPGVYTRLPLFRDWIKENTGV",
    "EC50 of hC3 cleavage (nM)": 7.43
  }
]
